measured.property: melting point (°C)
Respond with the bare value in °C.

GET /values?readout=melting point&item= Nc1cccc(C=O)c1
30

Please do the same for O=C(CBr)c1ccc(-c2ccccc2)cc1 as well.
125

Please do the same for c1ccc2sncc2c1 as well.
38

Please do the same for Cc1nc([N+](=O)[O-])cn1CCC#N as well.
115

Please do the same for CC(=O)C1(O)CCC2C3CCC4=CC(=O)CCC4(C)C3CCC21C (configuration not stated) as well.
222

Please do the same for O=C(O)c1cc2ccccc2cc1C(=O)O as well.
238

Please do the same for Cc1ccc(C(=O)c2ccccc2C(=O)O)cc1[N+](=O)[O-] as well.
205

Please do the same for COC(=O)c1cc(C(=O)O)cc([N+](=O)[O-])c1 as well.
183

Please do the same for Nc1ccc(-c2ccc(N)cc2Cl)c(Cl)c1 as well.
165

Please do the same for O=C1/C(=C\c2ccc(Cl)cc2)SC(=S)N1CN1CCOCC1 as well.
149

Please do the same for CCC(=O)OC1CCC2C3CCC4=CC(=O)CCC4(C)C3CCC12C (configuration not stated) as well.
120
